test system: ATXN2-luc; test: MSSR hit retest: ATXN2-luc luciferase assay, average of H2 and S1 cells (1 and 10 uM); type: cell-based, human; set-up: scale not given here; conditions: 1 uM compound; average of H2 and S1 cells
H2&S1 ave luc 1uM vs 90: less than gives 1; not less than gives 0.

compound	class-label
CS(=O)(=O)Nc1ccc(Cc2noc(-c3ccc4[nH]cc(CCN)c4c3)n2)cc1	0
CC(C)c1cc(/C=C(\C#N)C(=O)NCCCc2ccccc2)cc(C(C)C)c1O	1
C/C1=C2/[N-][C@H]([C@H](CC(N)=O)[C@@]2(C)CCC(=O)NC[C@@H](C)OP(=O)([O-])O[C@H]2[C@@H](O)[C@@H](n3cnc4cc(C)c(C)cc43)O[C@@H]2CO)[C@]2(C)N=C(/C(C)=C3N=C(/C=C4N=C1[C@@H](CCC(N)=O)C\4(C)C)[C@@H](CCC(N)=O)[C@]\3(C)CC(N)=O)[C@@H](CCC(N)=O)[C@]2(C)CC(N)=O.[Co]	0
C1CCC(N=C(NC23CC4CC(CC(C4)C2)C3)N2CCOCC2)CC1.Cl [U-37883A]	0
CO[C@H]1[C@@H](O)[C@@H](C)O[C@@H](O[C@H]2CC[C@]3(C)[C@H]4CC[C@]5(C)[C@@H](C6=CC(=O)OC6)CC[C@]5(O)[C@@H]4CC[C@]3(O)C2)[C@@H]1O	0
CCN(CC)CCCCCCCCOC(=O)c1cc(OC)c(OC)c(OC)c1	1
COc1ccc(CCCOC(Cn2ccnc2)c2ccc(OC)cc2)cc1 (centres unmarked)	0
CC[C@H]1CN2CCc3cc(OC)c(OC)cc3[C@@H]2C[C@@H]1C[C@H]1NCCc2cc(O)c(OC)cc21.Cl.Cl.O.O.O.O.O.O.O [Cephaeline dihydrochloride heptahydrate]	1

###

tested on: ATXN2-luc; experiment: MSSR hit retest / multiconcentration testing: ATXN2-luc luciferase assay in H2 cells (1 and 10 μM); assay type: cell-based, human; settings: 10 uM compound; luciferase, average of H2 and S1 cells expressing ATXN2-luc; rescreen
Listing of recorded H2&S1 ave luc 10uM by entry.

compound	study-system	H2&S1 ave luc 10uM
C1CCC(N=C(NC23CC4CC(CC(C4)C2)C3)N2CCOCC2)CC1.Cl [U-37883A]	ATXN2-luc	17
C/C1=C2/[N-][C@H]([C@H](CC(N)=O)[C@@]2(C)CCC(=O)NC[C@@H](C)OP(=O)([O-])O[C@H]2[C@@H](O)[C@@H](n3cnc4cc(C)c(C)cc43)O[C@@H]2CO)[C@]2(C)N=C(/C(C)=C3N=C(/C=C4N=C1[C@@H](CCC(N)=O)C\4(C)C)[C@@H](CCC(N)=O)[C@]\3(C)CC(N)=O)[C@@H](CCC(N)=O)[C@]2(C)CC(N)=O.[Co]	ATXN2-luc	109
CC(C)c1cc(/C=C(\C#N)C(=O)NCCCc2ccccc2)cc(C(C)C)c1O	ATXN2-luc	15
CC(=O)O[C@H]1C[C@H](O[C@H]2[C@@H](O)C[C@H](O[C@H]3[C@@H](O)C[C@H](O[C@H]4CC[C@@]5(C)[C@H](CC[C@@H]6[C@@H]5C[C@@H](O)[C@]5(C)[C@@H](C7=CC(=O)OC7)CC[C@]65O)C4)O[C@@H]3C)O[C@@H]2C)O[C@H](C)[C@H]1O[C@@H]1O[C@H](CO)[C@@H](O)[C@H](O)[C@H]1O [LANATOSIDE C]	ATXN2-luc	15
CCN(CC)CCCCCCCCOC(=O)c1cc(OC)c(OC)c(OC)c1	ATXN2-luc	53
CC[C@H]1CN2CCc3cc(OC)c(OC)cc3[C@@H]2C[C@@H]1C[C@H]1NCCc2cc(O)c(OC)cc21.Cl.Cl.O.O.O.O.O.O.O [Cephaeline dihydrochloride heptahydrate]	ATXN2-luc	17

###

test system: ATXN2-luc; test: MSSR hit retest: ATXN2-luc luciferase assay, average of H2 and S1 cells (1 and 10 uM); format: cell-based, human; set-up: scale not given here; conditions: head line r3 10uM, head line r4 20 uM compound; average of H2 and S1 cells
Known H2&S1 ave luc 10uM of a selection of compounds

compound	H2&S1 ave luc 10uM
C/C1=C2/[N-][C@H]([C@H](CC(N)=O)[C@@]2(C)CCC(=O)NC[C@@H](C)OP(=O)([O-])O[C@H]2[C@@H](O)[C@@H](n3cnc4cc(C)c(C)cc43)O[C@@H]2CO)[C@]2(C)N=C(/C(C)=C3N=C(/C=C4N=C1[C@@H](CCC(N)=O)C\4(C)C)[C@@H](CCC(N)=O)[C@]\3(C)CC(N)=O)[C@@H](CCC(N)=O)[C@]2(C)CC(N)=O.[Co]	109
CCN(CC)CCCCCCCCOC(=O)c1cc(OC)c(OC)c(OC)c1	53
COc1ccc(CCCOC(Cn2ccnc2)c2ccc(OC)cc2)cc1 (centres unmarked)	57
CC[C@H]1CN2CCc3cc(OC)c(OC)cc3[C@@H]2C[C@@H]1C[C@H]1NCCc2cc(O)c(OC)cc21.Cl.Cl.O.O.O.O.O.O.O [Cephaeline dihydrochloride heptahydrate]	17
C1CCC(N=C(NC23CC4CC(CC(C4)C2)C3)N2CCOCC2)CC1.Cl [U-37883A]	17
CO[C@H]1[C@@H](O)[C@@H](C)O[C@@H](O[C@H]2CC[C@]3(C)[C@H]4CC[C@]5(C)[C@@H](C6=CC(=O)OC6)CC[C@]5(O)[C@@H]4CC[C@]3(O)C2)[C@@H]1O	31
CS(=O)(=O)Nc1ccc(Cc2noc(-c3ccc4[nH]cc(CCN)c4c3)n2)cc1	6
CC(C)c1cc(/C=C(\C#N)C(=O)NCCCc2ccccc2)cc(C(C)C)c1O	15

###

test system: CMV-luc; assay: Secondary assays: CMV-luc in SC cells, Bright-Glo; assay type: cell-based, human; conditions: minimum CMV-luc signal in SC cells over 12 doses; summary data

molecule	study-system	result-units	min SC luc (%)
O=C(NC1CCNCC1)c1[nH]ncc1NC(=O)c1c(Cl)cccc1Cl [NCGC00263091-01, AT7519]	CMV-luc	%	103.668
CN(c1ncccc1CNc1nc(Nc2ccc3c(c2)CC(=O)N3)ncc1C(F)(F)F)S(C)(=O)=O [NCGC00242495-01, PF-00562271]	CMV-luc	%	98.3015
CCNC(=O)c1noc(-c2cc(C(C)C)c(O)cc2O)c1-c1ccc(CN2CCOCC2)cc1 [NCGC00247878-01]	CMV-luc	%	63.2542
C=CCNc1c(O)cc2c(O)c1C[C@@H](C)C[C@H](OC)[C@@H](O)[C@@H](C)C=C(C)[C@H](OC(N)=O)[C@@H](OC)C=CC=C(C)C(=O)N2 [NCGC00346438-01]	CMV-luc	%	94.9947
CCc1c(O)cc(O)c(C(=O)c2ccc(OCCN3CCOCC3)c(OC)c2)c1CC(=O)N(CCOC)CCOC [NCGC00346685-01, KW-2478]	CMV-luc	%	105.888
CC1(C)CC(=O)c2c(C(F)(F)F)nn(-c3ccc(C(N)=O)c(NC4CCC(OC(=O)CN)CC4)c3)c2C1 (centres unmarked) [NCGC00346640-01, PF 04929113]	CMV-luc	%	69.7843
C=CCNC1=C2C[C@@H](C)C[C@H](OC)[C@H](O)[C@@H](C)/C=C(\C)[C@H](OC(N)=O)[C@@H](OC)/C=C\C=C(/C)C(=O)NC(=CC1=O)C2=O [NCGC00163424-03, tanespimycin]	CMV-luc	%	96.2287
CNC(=O)c1cc(Oc2ccc(NC(=O)Nc3cc(C(C)(C)C)nn3-c3ccc4ncccc4c3)c(F)c2)ccn1 [NCGC00263172-01, DCC-2036]	CMV-luc	%	60.5803
Cc1ccc2nc(NCCN)c3ncc(C)n3c2c1 [NCGC00165761-02]	CMV-luc	%	96.0167
CC[C@H](CO)Nc1nc(NCc2ccccc2)c2ncn(C(C)C)c2n1 [NCGC00094374-05, roscovitine]	CMV-luc	%	82.4469
S=C(NCCCN1CCOCC1)N1CCN(c2nc(-c3ccccc3)cs2)CC1 [MLS000706289-02]	CMV-luc	%	79.3012
COc1c(C)cnc(Cn2cnc3c(Cl)nc(N)nc32)c1C [NCGC00247877-01]	CMV-luc	%	68.1668
CN(C)CCN1C(=O)c2cccc3cc(N)cc(c23)C1=O [NCGC00346513-01, amonafide]	CMV-luc	%	69.6561
Cn1cc(-c2cnn3c(N)c(Br)c([C@H]4CCCNC4)nc23)cn1 [NCGC00346653-01]	CMV-luc	%	91.5137

###

Catalogue of SD from mean (pilot screen) readings, one per entry.
tested on: ATXN2-luc; assay: MSSR pilot screen: ATXN2-luc luciferase assay (Bright-Glo) in H2 cells, single 10 μM dose; assay type: cell-based, human; settings: pilot screen
property-measured: SD from mean (pilot screen)

molecule	study-system	result
CC[C@H]1CN2CCc3cc(OC)c(OC)cc3[C@@H]2C[C@@H]1C[C@H]1NCCc2cc(O)c(OC)cc21.Cl.Cl.O.O.O.O.O.O.O [Cephaeline dihydrochloride heptahydrate]	ATXN2-luc	-4.055 SD
C[C@H]1O[C@@H](O[C@H]2[C@@H](O)C[C@H](O[C@H]3[C@@H](O)C[C@H](O[C@H]4CC[C@@]5(C)[C@H](CC[C@@H]6[C@@H]5C[C@@H](O)[C@]5(C)[C@@H](C7=CC(=O)OC7)CC[C@]65O)C4)O[C@@H]3C)O[C@@H]2C)C[C@H](O)[C@@H]1O	ATXN2-luc	-3.904 SD
C[C@H]1O[C@@H](O[C@H]2[C@@H](O)C[C@H](O[C@H]3[C@@H](O)C[C@H](O[C@H]4CC[C@@]5(C)[C@H](CC[C@@H]6[C@@H]5CC[C@]5(C)[C@@H](C7=CC(=O)OC7)[C@@H](O)C[C@]65O)C4)O[C@@H]3C)O[C@@H]2C)C[C@H](O)[C@@H]1O	ATXN2-luc	-4.086 SD
